The values you see were collected from patent US9688642B2.

- Target Or Test System: human GPR40 (Homo sapiens (Human))
- Sequence (O14842 whole entry): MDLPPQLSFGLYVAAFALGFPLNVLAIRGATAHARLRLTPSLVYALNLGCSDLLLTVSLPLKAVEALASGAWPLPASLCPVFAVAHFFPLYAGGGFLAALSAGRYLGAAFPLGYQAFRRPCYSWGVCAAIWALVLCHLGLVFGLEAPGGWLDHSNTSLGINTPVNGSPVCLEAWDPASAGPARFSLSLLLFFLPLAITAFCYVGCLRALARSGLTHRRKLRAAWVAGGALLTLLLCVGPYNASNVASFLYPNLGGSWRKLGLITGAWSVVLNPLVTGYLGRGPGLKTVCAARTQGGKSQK
- Assay Name: GPR40 calcium flux assay, HEK293 cells stably expressing human GPR40
- Measurement Context: transfected HEK293 cells stably expressing human GPR40; individual determinations listed; read-out: hGPR40 Ca2+ Assay EC50
Measurement Type: pEC50
In textbook form, pEC50 equals minus log to base ten of the concentration in mol/L.

COc1ccc(F)c(-c2ncc(COc3cccc([C@@H](CC(=O)O)C4CC4)c3)nc2N2CCOCC2)c1 ... 7.47
COc1cc(-c2ncc(COc3cccc([C@@H](CC(=O)O)C4CC4)c3)nc2OC2CCCCC2)c(F)cn1 ... 8.15
COc1ccc(F)c(-c2ncc(COc3cccc([C@@H](CC(=O)O)C4CC4)c3)nc2CC(C)(C)C)c1 ... 8.70

Challenge: Which pEC50 value belongs to "COc1cc(-c2ncc(COc3cccc([C@@H](CC(=O)O)C4CC4)c3)nc2OCC(C)(C)C)c(F)cn1" ?
Response given: 8.52

Challenge: pEC50 lookup needed for "COc1ccc(F)c(-c2ncc(COc3cccc([C@@H](CC(=O)O)C4CC4)c3)nc2OC2CC(C)(C)OC(C)(C)C2)c1" , thanks.
Response given: 7.68
